Quick list: Percent Effect per entry.
system: Mycobacterium tuberculosis; experiment: Cornell M. t heat shock assay; format: functional, organism-based; set-up: dose or concentration left out as unconfirmed; note: in the data most compounds retested in dose-response had high values
The whole screen tested about 69,000 compounds, of which about 950 (1.4%) showed an effect of 50% or more. For the sample, strong results were picked, then their nearest neighbours and some compounds at random.
readout-type: Percent Effect

{"compound": "Cc1cnn(CC2CCCCN2Cc2ncc(C(C)(C)C)o2)c1 (stereo unspecified)", "endpoint-result": "-8.099%"}
{"compound": "Cc1cnn(CC2CCCCN2Cc2nccn2CC(F)(F)F)c1 (stereo unspecified)", "endpoint-result": "52.97%"}
{"compound": "O=C(O)C(F)(F)F.O=C(O)C(F)(F)F.c1cc(CO[C@H]2CC[C@H]3[C@H]2OCCN3Cc2nccs2)ccn1", "endpoint-result": "-1.961%"}
{"compound": "O=c1[nH]c2ccccc2cc1CN(Cc1ccccn1)CC1CCCO1 (stereo unspecified)", "endpoint-result": "51.43%"}
{"compound": "Cc1cnn(CC2CCCN2Cc2nccn2C)c1 (stereo unspecified)", "endpoint-result": "15.87%"}
{"compound": "Cc1cnn(CC2CN(Cc3nccn3CC(F)(F)F)CCO2)c1 (stereo unspecified)", "endpoint-result": "-15.97%"}
{"compound": "CN(CCc1ccccn1)S(=O)(=O)N1CCCC1c1ccco1 (stereo unspecified)", "endpoint-result": "16.77%"}
{"compound": "CSc1ccccc1C(=O)N1C[C@H]2CC[C@@H]1CN(C(=O)C1CCC1)C2", "endpoint-result": "6.914%"}
{"compound": "Cc1ccc(C2CCCN2S(=O)(=O)N(C)CCc2ccccn2)o1 (stereo unspecified)", "endpoint-result": "69.2%"}
{"compound": "CCN(CC)Cc1cn2c(n1)CN(C(=O)c1cc(C)on1)CC2.O=C(O)C(F)(F)F", "endpoint-result": "-2.302%"}
{"compound": "Cc1cnn(CC2CCCCN2Cc2cnc(C)s2)c1 (stereo unspecified)", "endpoint-result": "18.92%"}

---

Quick list: Percent Effect per entry.
test system: Mycobacterium tuberculosis; assay: Cornell M. t heat shock assay; type: functional, organism-based; set-up: dose or concentration left out as unconfirmed; note: in the data most compounds retested in dose-response had high values
About 950 (1.4%) of roughly 69,000 compounds showed an effect of 50% or more. This is one part of a sample in which strong results are shown more often than they occur.

{"compound": "COc1ccc(O[C@H]2COCCN(Cc3c[nH]c4ccccc34)C2)cc1", "Percent Effect / %": 47.94}
{"compound": "O=c1[nH]c(CCN2CCCCC2Cn2cccn2)nc2ccccc12 (stereo not drawn)", "Percent Effect / %": 29.01}
{"compound": "Cc1cc(N2CCCC(c3nccnc3N(C)C)C2)ncn1 (stereo not drawn)", "Percent Effect / %": -16.62}

---

system: Mycobacterium tuberculosis; assay: Cornell M. t heat shock assay; format: functional, organism-based; parameters: dose or concentration left out as unconfirmed; note: in the data most compounds retested in dose-response had high values
Out of some 69,000 compounds screened, about 950 (1.4%) showed an effect of 50% or more. The full list was thinned out, with strong results kept by preference.

{"molecule": "CCCc1nc(CNC(C)Cn2cccn2)cs1 (stereo unspecified)", "Percent Effect, %": 69.81}
{"molecule": "O=C(O)C(F)(F)F.c1cn2c(n1)CN(Cc1ccsc1)CC(Cn1cncn1)C2 (stereo unspecified)", "Percent Effect, %": -22.01}
{"molecule": "Cc1ccccc1C1CCN(CCn2cc(-c3cccc(O)c3)nn2)C1 (stereo unspecified)", "Percent Effect, %": 72.96}
{"molecule": "COCc1nc(N2CC[C@H](N(C)C)C2)c2cnn(C)c2n1", "Percent Effect, %": -4.11}
{"molecule": "CCCOC1CCCN(c2nc(CC)nc3c2cnn3C)C1 (stereo unspecified)", "Percent Effect, %": 77.82}
{"molecule": "CC(Cn1cccn1)NCc1csc(-c2ncccn2)n1 (stereo unspecified)", "Percent Effect, %": -0.311}
{"molecule": "CSc1ccc(C(=O)N2CC(=O)N(CC(C)(C)C)CC(O)C2)cc1 (stereo unspecified)", "Percent Effect, %": 67.49}
{"molecule": "CCCc1nc(N2CCCN3CCC[C@H]3C2)c2cnn(C)c2n1", "Percent Effect, %": -9.904}
{"molecule": "CC(C)(C)CN1CC(O)CN(C(=O)c2cccc(C(F)(F)F)c2)CC1=O (stereo unspecified)", "Percent Effect, %": 51.48}
{"molecule": "CCOCC1CN(Cc2ccc(F)cc2)Cc2nn(C)cc21.O=C(O)C(F)(F)F (stereo unspecified)", "Percent Effect, %": -29.18}
{"molecule": "CC(Cn1cccn1)NCc1csc(COc2ccc(F)cc2)n1 (stereo unspecified)", "Percent Effect, %": 104}
{"molecule": "Cl.FC(F)(F)c1ccc(-c2cnc(C3CCCN3)cn2)cc1 (stereo unspecified)", "Percent Effect, %": -8.787}
{"molecule": "CCN1CC(O)CN(C(=O)c2ccc(SC)cc2)CC1=O (stereo unspecified)", "Percent Effect, %": 25.41}
{"molecule": "CSc1ccc(C(=O)N2CC(=O)N(CC3CC3)CC(O)C2)cc1 (stereo unspecified)", "Percent Effect, %": 13.44}
{"molecule": "COCCN1CCC2(CCN(c3ncccn3)CC2)C1=O.O=C(O)C(F)(F)F", "Percent Effect, %": -21.42}
{"molecule": "CCCc1nc(N2CCCC(CCOC)C2)c2cnn(C)c2n1 (stereo unspecified)", "Percent Effect, %": -22.83}
{"molecule": "CCn1ncc2c1CN(C(=O)Cc1cccs1)CC2COC.O=C(O)C(F)(F)F (stereo unspecified)", "Percent Effect, %": 1.467}
{"molecule": "CN(C)[C@@H]1CN(Cc2cnn(C)c2)[C@@H]2COC[C@H]12.O=C(O)C(F)(F)F.O=C(O)C(F)(F)F.O=C(O)C(F)(F)F", "Percent Effect, %": -14.51}
{"molecule": "O=C(O)C(F)(F)F.O=C(c1cccnc1)N1C[C@H]2CN(Cc3cccc(F)c3)C(=O)[C@H]2C1", "Percent Effect, %": -29.23}
{"molecule": "COc1ccc(CN2CCC3(CC2)CC(CC(=O)NC(C)C)CO3)cc1.O=C(O)C(F)(F)F (stereo unspecified)", "Percent Effect, %": 0.5964}
{"molecule": "CC(Cn1cccn1)NCc1csc(-c2ccc(F)cc2)n1 (stereo unspecified)", "Percent Effect, %": 41.6}
{"molecule": "O=C(O)C(F)(F)F.O=S(=O)(c1cccs1)N1CC[C@H](O)[C@@H]1Cc1ccncc1", "Percent Effect, %": -2.198}
{"molecule": "Oc1cccc(-c2cc(C3CCN(Cc4cncnc4)C3)ccn2)c1 (stereo unspecified)", "Percent Effect, %": 20.76}
{"molecule": "O=C(CC1CC2(CCN(CC3CC3)CC2)c2ccccc21)NC1CCC1.O=C(O)C(F)(F)F (stereo unspecified)", "Percent Effect, %": -33.11}
{"molecule": "CCc1nc(CNC(C)Cn2cccn2)cs1 (stereo unspecified)", "Percent Effect, %": 11.1}
{"molecule": "Cc1cnc(C(=O)N2C[C@H]3CC[C@@H]2CN(c2cnccn2)C3)cn1", "Percent Effect, %": -7.052}
{"molecule": "Cl.O=C(NCc1ccc(Cl)cc1)N1CCN(CC(O)C2CC2)CC1 (stereo unspecified)", "Percent Effect, %": 7.084}
{"molecule": "CC(Cn1cccn1)NCc1csc(Cc2ccccc2)n1 (stereo unspecified)", "Percent Effect, %": 103.2}
{"molecule": "CC(C)CN1CC(O)CN(C(=O)c2cccc(C(F)(F)F)c2)CC1=O (stereo unspecified)", "Percent Effect, %": 3.734}
{"molecule": "CCN(CC)C1CCN(C(=O)c2cc3cc(C)cc(C)c3nc2C)CC1.Cl", "Percent Effect, %": 6.865}
{"molecule": "CNC(=O)CN1CCOCC2(CCCN(CCc3ccccc3)C2)C1.O=C(O)C(F)(F)F.O=C(O)C(F)(F)F (stereo unspecified)", "Percent Effect, %": -11.41}
{"molecule": "CCN1CC(O)CN(C(=O)c2cccc(C(F)(F)F)c2)CC1=O (stereo unspecified)", "Percent Effect, %": 31.6}
{"molecule": "CC(=O)N1CCc2c(nc(N(C)C)nc2NCCc2cccs2)C1", "Percent Effect, %": 53.71}
{"molecule": "Cl.Nc1ncc(-c2csc(NC(=O)C[C@H]3COCCN3)n2)cn1", "Percent Effect, %": -19.35}
{"molecule": "CC(=O)N1CCc2c(nc(N(C)C)nc2NC(C)Cc2cccs2)C1 (stereo unspecified)", "Percent Effect, %": 23.93}
{"molecule": "COc1cccc(CN2C[C@@H]3COC[C@]3(CN3CCOCC3)C2)c1.O=C(O)C(F)(F)F.O=C(O)C(F)(F)F", "Percent Effect, %": -20.77}
